Attribution: patent US6809101B2

testTarget: HCV RNA-dependent RNA polymerase (UniProt P27958)
methodNotes: Inhibitory activity against HCV RNA-dependent RNA polymerase (Experiment Example 1)
Format: biochemical, hepatitis C virus (HCV)
appliedConditions: Experimental example 1; poly(A) template, oligo(U)12 primer, 3H-UTP substrate, enzyme reaction 25° C. for 30 min; read-out: IC50 for HCV RdRp (converted)
measuredMetric: IC50 (µM)

smilesinput=Cc1ccc(C(O)=C2SC(=S)NC2=O)o1 experimentalresult=20.3
smilesinput=O=C1NC(=S)S/C1=C(/O)c1ccco1 experimentalresult=3.96
smilesinput=O=C1NC(=S)SC1=C(O)c1ncccn1 experimentalresult=5.85
smilesinput=O=C1NC(=S)SC1=C(O)c1ccno1 experimentalresult=29.8
smilesinput=Cc1nnc(C(O)=C2SC(=S)NC2=O)o1 experimentalresult=8.22
smilesinput=O=C1NC(=S)SC1=C(O)c1cnccn1 experimentalresult=31.8
